Data provenance: ChEMBL document CHEMBL1149783

Entries and their MIC
- Tested on: Escherichia coli
- assay protocol: Antibacterial activity against Escherichia coli CIP 54127 by broth microdilution method
- Format: functional

CC(C)CCC[C@@H](C)[C@H]1CC[C@H]2[C@@H]3CC[C@H]4C[C@@H](NCCCCN)CC[C@]4(C)[C@H]3CC[C@]12C	> 50 µg/mL
CC(C)CCC[C@@H](C)[C@H]1CC[C@H]2[C@@H]3CC=C4C[C@@H](NCCCN)CC[C@]4(C)[C@H]3CC[C@]12C	6.25 µg/mL
CC(C)CCC[C@@H](C)[C@H]1CC[C@H]2[C@@H]3CC[C@H]4C[C@@H](NCCN)CC[C@]4(C)[C@H]3CC[C@]12C	> 50 µg/mL
CC(C)CCC[C@@H](C)[C@H]1CC[C@H]2[C@@H]3CC=C4C[C@@H](NCCN)CC[C@]4(C)[C@H]3CC[C@]12C	12.5 µg/mL
CC(C)CCC[C@@H](C)[C@H]1CC[C@H]2[C@@H]3CCC4=C[C@@H](NCCCN)CC[C@]4(C)[C@H]3CC[C@]12C	> 50 µg/mL

// field: MIC; key: CC(C)CCCC(C)C1CCC2C3CCC4CC(N)CCC4(C)C3CCC12C (stereo not given) ; value = > 50 µg/mL

// field: MIC; key: CC(C)CCC[C@@H](C)[C@H]1CC[C@H]2[C@@H]3CCC4=C[C@@H](NCCCCCCCCCCCCN)CC[C@]4(C)[C@H]3CC[C@]12C ; value = > 50 µg/mL

// field: MIC; key: CC(C)CCC[C@@H](C)[C@H]1CC[C@H]2[C@@H]3CCC4=C[C@@H](NCCCCCCCCCN)CC[C@]4(C)[C@H]3CC[C@]12C ; value = > 50 µg/mL

// field: MIC; key: CC(C)CCC[C@@H](C)[C@H]1CC[C@H]2[C@@H]3CC=C4C[C@@H](NCCCNCCCCNCCCN)CC[C@]4(C)[C@H]3CC[C@]12C ; value = > 50 µg/mL

---

- Tested on: Candida albicans
- assay protocol: Antifungal activity against Candida albicans CIP 1180-79 by broth microdilution method
- Type: functional
Entries and their MIC

Please review the entries below; each comes with its answer.
CC(C)CCC[C@@H](C)[C@H]1CC[C@H]2[C@@H]3CCC4=C[C@@H](NCCCCCCCCN)CC[C@]4(C)[C@H]3CC[C@]12C	> 50 µg/mL
CNC1CCC2(C)C(CCC3C2CCC2(C)C(C(C)CCCC(C)C)CCC32)C1 (stereo not drawn)	12.5 µg/mL

Continue with the next compound.
// field: MIC; key: CC(C)CCC[C@@H](C)[C@H]1CC[C@H]2[C@@H]3CCC4=C[C@@H](NCCCCCCCCCCCCN)CC[C@]4(C)[C@H]3CC[C@]12C ; value = > 50 µg/mL

---

Entries and their MIC
- Tested on: Candida albicans
- assay protocol: Antifungal activity against Candida albicans CIP 1180-79 by broth microdilution method
- Assay type: functional

Please review the entries below; each comes with its answer.
CC(C)CCC[C@@H](C)[C@H]1CC[C@H]2[C@@H]3CCC4=C[C@@H](NCCCCCN)CC[C@]4(C)[C@H]3CC[C@]12C	> 50 µg/mL
CN[C@@H]1C=C2CC[C@H]3[C@@H]4CC[C@H]([C@H](C)CCCC(C)C)[C@@]4(C)CC[C@@H]3[C@@]2(C)CC1	12.5 µg/mL
CC(C)CCC[C@@H](C)[C@H]1CC[C@H]2[C@@H]3CC=C4C[C@@H](NCCN)CC[C@]4(C)[C@H]3CC[C@]12C	> 50 µg/mL

// field: MIC; key: CC(C)CCC[C@@H](C)[C@H]1CC[C@H]2[C@@H]3CC=C4C[C@@H](NCCCN)CC[C@]4(C)[C@H]3CC[C@]12C ; value = > 50 µg/mL

// field: MIC; key: CC(C)CCC[C@@H](C)[C@H]1CC[C@H]2[C@@H]3CC[C@H]4C[C@@H](NCCN)CC[C@]4(C)[C@H]3CC[C@]12C ; value = > 50 µg/mL

// field: MIC; key: CC(C)CCC[C@@H](C)[C@H]1CC[C@H]2[C@@H]3CCC4=C[C@@H](NCCN)CC[C@]4(C)[C@H]3CC[C@]12C ; value = > 50 µg/mL

// field: MIC; key: CC(C)[C@@H](CC[C@@H](C)[C@H]1CC[C@H]2[C@@H]3[C@H](O)C[C@H]4C[C@@H](NCCCNCCCCNCCCN)CC[C@]4(C)[C@H]3CC[C@]12C)OS(=O)(=O)O.Cl.Cl.Cl.Cl [TRODUSQUEMINE HYDROCHLORIDE] ; value = 4 µg/mL

// field: MIC; key: CC(C)CCC[C@@H](C)[C@H]1CC[C@H]2[C@@H]3CC=C4C[C@@H](NCCCCN)CC[C@]4(C)[C@H]3CC[C@]12C ; value = > 50 µg/mL

// field: MIC; key: CC(C)CCCC(C)C1CCC2C3CCC4CC(N)CCC4(C)C3CCC12C (centres undefined) ; value = 50 µg/mL

// field: MIC; key: CC(C)CCC[C@@H](C)[C@H]1CC[C@H]2[C@@H]3CC=C4C[C@@H](NCCCNCCCCNCCCN)CC[C@]4(C)[C@H]3CC[C@]12C ; value = > 50 µg/mL

// field: MIC; key: CC(C)CCC[C@@H](C)[C@H]1CC[C@H]2[C@@H]3CCC4=C[C@@H](NCCCCN)CC[C@]4(C)[C@H]3CC[C@]12C ; value = 6.25 µg/mL

// field: MIC; key: CC(C)CCC[C@@H](C)[C@H]1CC[C@H]2[C@@H]3CCC4=C[C@@H](NCCCCCCCCCN)CC[C@]4(C)[C@H]3CC[C@]12C ; value = > 50 µg/mL

// field: MIC; key: CC(C)CCC[C@@H](C)[C@H]1CC[C@H]2[C@@H]3CCC4=C[C@@H](NCCCCCCCN)CC[C@]4(C)[C@H]3CC[C@]12C ; value = > 50 µg/mL

// field: MIC; key: CC(C)CCCC(C)C1CCC2C3CCC4CC(NCCCCCCCN)CCC4(C)C3CCC12C (centres undefined) ; value = > 50 µg/mL

// field: MIC; key: CC(C)CCCC(C)C1CCC2C3CCC4CC(NCCCNCCCCNCCCN)CCC4(C)C3CCC12C (centres undefined) ; value = 50 µg/mL

// field: MIC; key: CC(C)CCC[C@@H](C)[C@H]1CC[C@H]2[C@@H]3CC[C@H]4C[C@@H](NCCCCN)CC[C@]4(C)[C@H]3CC[C@]12C ; value = 25 µg/mL

// field: MIC; key: CC(C)CCC[C@@H](C)[C@H]1CC[C@H]2[C@@H]3CC[C@H]4C[C@@H](NCCCN)CC[C@]4(C)[C@H]3CC[C@]12C ; value = > 50 µg/mL
